B1: FBF1 (parent)
chain: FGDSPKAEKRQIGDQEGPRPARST

Variants of: B1
Assay: protein stability index of a GFP-peptide fusion (GPS, HEK-293T) (PSI 1-6); higher = more stable;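 note: lentivirally expressed fusions sorted by FACS into six bins by GFP to DsRed ratio, PSI derived from sequencing read proportions per bin multiplied by bin number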
Conditions: c terminus: a fixed tail appended
# protein stability index listing for each entry below
Would you mind answering with just the numeric figure?

Query :: For the variant shown here, `A21C` , give the reported protein stability index.
Result :: 5.2

Query :: I'd like to know its protein stability index. The variant in question is `R10N`
Result :: 5.42

Query :: I am curious: what protein stability index value has been reported for `I12S` ?
Result :: 5.47

Origin of measurements: the supplement of paper PMC10567573
